Reference for the values: the RNAGym collection of RNA variant scans (doi:10.1126/science.aae0568)

For each record, write down the corresponding yeast fitness.
B1: tRNA (parent)
chain: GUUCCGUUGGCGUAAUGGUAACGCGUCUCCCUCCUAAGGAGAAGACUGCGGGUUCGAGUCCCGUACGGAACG

- Variants of: B1
- procedure-text: yeast fitness relative to wild type (ratio to wild type); higher = fitter; tRNA-Arg(CCU), competitive growth, 37 C, YPD
This sample holds only a part of the variants without activity.

INPUT: What value of yeast fitness has been recorded for this entry: GUUCCGUUGGCGUAAUGGUAACGCGUCUCCUUCCUAAGGAGAAGACUGCGGGUUAGAGUCCCGUACGGAACG
OUTPUT: 0.749

INPUT: Also GAUCCGUUGGCGUAAUGGUAGCGCGUUUCCCUCCUAAGGAGAAGACUGCGGGUUCGAGUCCCGUACGGAACG , if possible.
OUTPUT: 0.693

INPUT: Also GUUCCGCUGGCGUAAUGGAAACGCGUCUCCCUCCUAAGGAGAAGACUGCGGGUUCGAGUCCAGUACCGAACG , if possible.
OUTPUT: ≤ 0.5

INPUT: Also GUUCCGUUGGCGUAAUGGUAACGAGUCUCCCUCCUAAGGAGAGGACUGCGGGUUCGAGUCCCUAACGGAACG , if possible.
OUTPUT: ≤ 0.5

INPUT: Also GUUCCGUUGGCGUAAUGGUAACGCGUCUCUCUCCUAACGAGAAGACUGCGGGUUGGAGUCUCGUACGGAACG , if possible.
OUTPUT: ≤ 0.5

INPUT: Also GUUCCGUUGGCGUACCGGUAACGCGUCUCCCUCCUAAGGAGAUGACUGCGGGUUCGAGUCCCGUACGGAGCG , if possible.
OUTPUT: 0.532

INPUT: Also GUUCCGUUGGCGUAAUGGUAACGCGUCUCCUUCCUAAGGAGGAGACUGCGGGUUCGAAUCCCGUACGGAACG , if possible.
OUTPUT: 0.716

INPUT: Also GUUCCGUUGGCGUAAUGGUAACGCGUCUGCCUCCAAAGGAGAAGACUGCGGGUUCGACUCCCGUACGGAACG , if possible.
OUTPUT: ≤ 0.5

INPUT: Also GUUUCGUUGGCGUAAUGGUAACGCGUCUCCCUCUUAAGGAGACGACUGCGGGUUCGAGUCCCGUACGGUACG , if possible.
OUTPUT: 0.557

INPUT: Also GUUCCGUAGGCGUAUUGGUAAGGCGUCUCCUUCCUAAGGAGAAGACUGCGGGUUCGCGUCCCGAACGAAACG , if possible.
OUTPUT: ≤ 0.5

INPUT: Also GUUCCAAUGGCGUAAUGGUAACGCGUCUCCCUCCUAAGGAGAAGACUGCGGGUUCGAGUGCCGUACGGAACG , if possible.
OUTPUT: ≤ 0.5

INPUT: Also GUUCCGUUGGCGUAAUGGUAACGCGUCUCCUUUCUAGGGAGAAGACUGCGGGUUCGCGUCCCGUACGGAACG , if possible.
OUTPUT: ≤ 0.5

INPUT: Also GUUCCGUUGGCGUAGUGGUAACGCGUCUCCCUCCUAAGGAGCAGACUGAGGGUUCGAGUCCCGUACGGAACG , if possible.
OUTPUT: 0.527

INPUT: Also GUUUCGUUGGCGUAUUGGUAACGCGUCCCCCUCCUAAGGAGAAGACUGCGGGUUCGGGUCCCGUACGGAACG , if possible.
OUTPUT: ≤ 0.5
